Data provenance: patent US11884661B2

Molecular target: human αVβ6 (Homo sapiens, UniProt P06756+P18564)
Sequence (P06756 31-992 limits assumed): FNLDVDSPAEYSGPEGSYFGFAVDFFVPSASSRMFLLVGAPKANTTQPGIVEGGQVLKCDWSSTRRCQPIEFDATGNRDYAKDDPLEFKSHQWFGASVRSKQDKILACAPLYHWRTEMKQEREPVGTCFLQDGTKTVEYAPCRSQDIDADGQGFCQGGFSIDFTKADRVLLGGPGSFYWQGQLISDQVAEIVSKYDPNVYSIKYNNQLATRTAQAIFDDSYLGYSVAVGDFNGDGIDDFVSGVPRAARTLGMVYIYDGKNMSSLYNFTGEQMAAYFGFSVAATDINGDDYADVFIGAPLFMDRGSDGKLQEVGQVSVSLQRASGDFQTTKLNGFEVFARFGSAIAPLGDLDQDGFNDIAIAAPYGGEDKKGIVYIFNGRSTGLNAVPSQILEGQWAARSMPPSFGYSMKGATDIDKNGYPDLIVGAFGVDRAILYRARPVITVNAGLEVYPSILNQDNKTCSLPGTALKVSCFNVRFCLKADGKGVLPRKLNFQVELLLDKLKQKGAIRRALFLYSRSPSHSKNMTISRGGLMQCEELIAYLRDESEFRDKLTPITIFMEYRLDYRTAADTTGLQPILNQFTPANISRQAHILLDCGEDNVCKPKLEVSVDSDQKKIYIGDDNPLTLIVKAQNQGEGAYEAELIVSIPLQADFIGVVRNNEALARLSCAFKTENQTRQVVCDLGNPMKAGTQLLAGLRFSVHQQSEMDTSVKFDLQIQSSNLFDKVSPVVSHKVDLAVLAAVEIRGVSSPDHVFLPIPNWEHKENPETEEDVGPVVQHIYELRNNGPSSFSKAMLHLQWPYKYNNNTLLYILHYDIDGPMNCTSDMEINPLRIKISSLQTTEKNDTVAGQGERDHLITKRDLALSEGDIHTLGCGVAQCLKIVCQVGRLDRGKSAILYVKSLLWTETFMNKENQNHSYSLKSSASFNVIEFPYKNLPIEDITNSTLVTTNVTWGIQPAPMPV
Sequence (P18564 22-707 limits assumed): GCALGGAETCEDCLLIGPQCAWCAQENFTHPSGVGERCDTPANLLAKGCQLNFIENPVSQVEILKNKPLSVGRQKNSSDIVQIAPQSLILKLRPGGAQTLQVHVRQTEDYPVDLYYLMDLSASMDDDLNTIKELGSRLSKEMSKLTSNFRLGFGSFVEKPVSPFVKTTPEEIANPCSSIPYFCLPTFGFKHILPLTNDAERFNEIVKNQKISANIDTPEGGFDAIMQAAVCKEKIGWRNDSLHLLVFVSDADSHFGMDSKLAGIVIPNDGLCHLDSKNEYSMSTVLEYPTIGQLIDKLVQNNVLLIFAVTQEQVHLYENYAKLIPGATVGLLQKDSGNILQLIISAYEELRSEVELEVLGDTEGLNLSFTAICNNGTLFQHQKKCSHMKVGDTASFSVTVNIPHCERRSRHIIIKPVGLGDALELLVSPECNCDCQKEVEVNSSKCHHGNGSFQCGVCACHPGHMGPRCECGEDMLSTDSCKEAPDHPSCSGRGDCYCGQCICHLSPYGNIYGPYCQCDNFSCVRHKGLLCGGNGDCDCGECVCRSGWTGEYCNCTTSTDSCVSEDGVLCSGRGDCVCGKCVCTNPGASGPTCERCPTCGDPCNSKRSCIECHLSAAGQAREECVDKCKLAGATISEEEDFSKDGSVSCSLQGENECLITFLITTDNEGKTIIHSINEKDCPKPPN
Assay: human αVβ6 HTRF binding assay
Details: recombinant human αVβ6 integrin, FITC-conjugated fibronectin
pIC50: −log10 of the molar value.
endpoint: pIC50

Illustrative cases are given below, each with its answer.
CN(C)c1ccc(C(CC(=O)O)c2nc(CCCCc3ccc4c(n3)NCCC4)cs2)cn1 (single isomer, unassigned) [Example 121]
6.77
Cc1cc(C)n(-c2cccc(C(CC(=O)O)n3ccc(CCCc4ccc5c(n4)NCCC5)n3)c2)n1 (racemic) [Example 31]
8.28
O=C(O)C[C@@H](c1cnc2c(c1)OCCO2)n1ccc(CCCc2ccc3c(n2)NCCC3)n1 [Example 51]
8.31
O=C(O)CC(c1cncc(N2CCOCC2)c1)n1nccc1CCCc1ccc2c(n1)NCCC2 (single isomer, unassigned) [Example 94]
7.72

(I) COc1ccc(C(CC(=O)O)n2ccc(CCCc3ccc4c(n3)NCCC4)n2)cn1 (single isomer, unassigned) [Example 3]
(II) COc1ccc(C(CC(=O)O)c2nc(CCCCc3ccc4c(n3)NCCC4)c(C)o2)cc1F (single isomer, unassigned) [Example 180]
Ask: Would you let me know which has the greater pIC50 value, I or II ? Bench note: the answer is the label of the chosen record.
Result: I
(I: 8.49, II: 6.60)

(1) Cc1ncc(C(CC(=O)O)c2nc(CCCc3ccc4c(n3)NCCC4)cs2)cn1 (single isomer, unassigned) [Example 147]
(2) CCOc1ncc([C@H](CC(=O)O)n2ccc(CCCc3ccc4c(n3)NCCC4)n2)cn1 [Example 56]
Ask: Would you let me know which has the greater pIC50 value, 1 or 2 ? Bench note: the answer is the label of the chosen record.
Result: 1
(1: 8.72, 2: 8.15)

(I) Cc1cncc(C(CC(=O)O)c2nc(CCCc3ccc4c(n3)NCCC4)cs2)c1 (single isomer, unassigned) [Example 150]
(II) COc1ccc(C(CC(=O)O)c2nc(CCCC3CCc4cccnc4N3)cs2)cn1 (single isomer, unassigned) [Example 157]
(III) COc1cncc(C(CC(=O)O)n2nccc2CCCc2ccc3c(n2)NCCCC3)c1 (racemic) [Example 108]
(IV) COc1ccc(C(CC(=O)O)c2nc(CCCCc3ccc4c(n3)NCCC4)cs2)cc1OC (single isomer, unassigned) [Example 124]
Ask: Hey, can you sort those compounds up there by pIC50, smallest first? To answer, arrange all of the labels according to the requested order.
Result: III, I, II, IV

(I) CCOC(=O)C[C@@H](c1ccc(OC)nc1)n1ccc(CCCc2ccc3c(n2)NCCC3)n1 [Example 47]
(II) O=C(O)CC(c1cnc2ccccc2c1)n1ncc(CCCc2ccc3c(n2)NCCC3)n1 (single isomer, unassigned) [Example 175]
Ask: Would you let me know which has the greater pIC50 value, I or II ? Bench note: the answer is the label of the chosen record.
Result: II
(II: 8.37, I: 7.96)

---

Molecular target: human αVβ6 (Homo sapiens, UniProt P06756+P18564)
Construct: purchased R & D systems 3817-AV
Test: human αVβ6 HTRF binding assay
Conditions: recombinant human αVβ6 integrin, FITC-conjugated fibronectin
endpoint: IC50 (nM)

Illustrative cases are given below, each with its answer.
CN(C)C(=O)c1ccc(C(CC(=O)O)c2nc(CCCCc3ccc4c(n3)NCCC4)cs2)cc1F (single isomer, unassigned) [Example 132]
81
COc1ncc(C(CC(=O)O)n2nccc2CCC[C@H]2CCc3cccnc3N2)cn1 (mixture of isomers) [Example 92]
6700
COc1ccc(C(CC(=O)O)n2ccc(CCCc3ccc4c(n3)NCCC4)n2)cn1 (racemic) [Example 2]
6.8
COc1ccc(C(CC(=O)O)c2nc(CCCC3CCc4cccnc4N3)cs2)cn1 (single isomer, unassigned) [Example 155]
8.1
O=C(O)CC(c1cncc(N2CCOCC2)c1)n1ccc(CCCc2ccc3c(n2)NCCC3)n1 (single isomer, unassigned) [Example 68]
2.8
COc1ccc(C(CC(=O)O)c2nc(CCCCc3ccc4c(n3)NCCC4)cn2C)cc1F (single isomer, unassigned) [Example 169]
67

(I) COc1ncc(C(CC(=O)O)n2nccc2CCCc2ccc3c(n2)NCCC3)cc1F (racemic) [Example 77]
(II) COc1ccc([C@H](CC(=O)O)N2CCC(CCCc3ccc4c(n3)NCCC4)C2)cn1 (some centres unmarked) [Example 21]
Ask: Returns: the label, I or II , whose recorded IC50 is the lower number. Bench note: the answer is the label of the chosen record.
Result: II

(A) COc1ccc(C(CC(=O)O)c2nc(CCCC3CCc4cccnc4N3)cs2)cc1F (single isomer, unassigned) [Example 161]
(B) COc1ncc(C(CC(=O)O)c2nc(CCCc3ccc4c(n3)NCCC4)cs2)cn1 (centres unmarked) [Example 145]
(C) COc1ccc(C(CC(=O)O)c2cc(CCCc3ccc4c(n3)NCCC4)[nH]n2)cc1F (centres unmarked) [Example 116]
Ask: Order the 3 molecules from highest to lowest IC50. To answer, arrange all of the labels according to the requested order.
Result: C, A, B
(C: 47 nM, A: 12 nM, B: 4.5 nM)

(A) COc1ccc(C(CC(=O)O)n2ccc(CCCc3ccc4c(n3)NCCC4)n2)cc1F (racemic) [Example 49]
(B) CCOc1ncc(C(CC(=O)O)c2nc(CCCCc3ccc4c(n3)NCCC4)cs2)cn1 (single isomer, unassigned) [Example 130]
Ask: Would you let me know which has the greater IC50 value, A or B ? Bench note: the answer is the label of the chosen record.
Result: A
(A: 24 nM, B: 2.9 nM)

---

Target: human αVβ6 (Homo sapiens, UniProt P06756+P18564)
Assay: human αVβ6 HTRF binding assay
Conditions: recombinant human αVβ6 integrin, FITC-conjugated fibronectin
endpoint: IC50 (nM)

COc1ccc(C(CC(=O)O)c2ncc(CCCc3ccc4c(n3)NCCC4)s2)cn1 (single isomer, unassigned) [Example 19]
44
COc1ccc(C(CC(=O)O)c2cnn(CCCc3ccc4c(n3)NCCC4)c2)cn1 (racemic)
323
COc1cncc(C(CC(=O)O)n2ccc(CCCc3ccc4c(n3)NCCCC4)n2)c1 (racemic)
4.9

(P) COc1cnc(C(CC(=O)O)n2ccc(CCCc3ccc4c(n3)NCCC4)n2)cn1 (racemic)
(Q) COc1ccc(C(CC(=O)O)n2ccc(CCCc3ccc4c(n3)NCCC4)n2)nn1 (racemic)
(R) Cc1ncc([C@H](CC(=O)O)n2ccc(CCC[C@H]3CCc4cccnc4N3)n2)cn1
(S) COc1ccc(C(CC(=O)O)c2nc(CCCc3ccc4c(n3)NCCC4)cs2)cc1F (single isomer, unassigned) [Example 38]
Ask: Order the 4 compounds from highest to lowest IC50. To answer, arrange all of the labels according to the requested order.
Result: R, P, Q, S

(1) CN(C)C(=O)c1ccc(C(CC(=O)O)c2nc(CCCc3ccc4c(n3)NCCC4)cs2)cc1F (single isomer, unassigned) [Example 136]
(2) COc1ccc(C(CC(=O)O)c2nc(CCCc3ccc4c(n3)NCCC4)cs2)cn1 (single isomer, unassigned) [Example 16]
(3) O=C(O)C[C@H](c1cnc2c(c1)OCCO2)n1ccc(CCCc2ccc3c(n2)NCCC3)n1
(4) COc1ccc(C(CC(=O)O)n2ccc(CCCc3ccc4c(n3)NCCCC4)n2)cn1 (single isomer, unassigned) [Example 101]
Ask: Hey, can you sort those compounds up there by IC50, smallest first? To answer, arrange all of the labels according to the requested order.
Result: 4, 1, 2, 3

(I) Cc1ncc([C@H](CC(=O)O)n2ccc(CCCc3ccc4c(n3)NCCC4)n2)cn1
(II) COc1ccc(C(CC(=O)O)c2nc(CCCCc3ccc4c(n3)NCCC4)cs2)cc1F (single isomer, unassigned) [Example 37]
Ask: Would you let me know which has the greater IC50 value, I or II ? Bench note: the answer is the label of the chosen record.
Result: I

---

Biological target: human αVβ6 (Homo sapiens, UniProt P06756+P18564)
Experiment: human αVβ6 HTRF binding assay
Conditions: recombinant human αVβ6 integrin, FITC-conjugated fibronectin
endpoint: IC50 (nM)

Illustrative cases are given below, each with its answer.
Cc1ncc(C(CC(=O)O)n2nccc2CCC[C@H]2CCc3cccnc3N2)cn1 (some centres unmarked)
1380
COc1ccc(C(CC(=O)O)n2cc(CCCCc3ccc4c(n3)NCCC4)cn2)cn1 (racemic)
56
O=C(O)CC(c1cncnc1)n1ccc(CCCc2ccc3c(n2)NCCC3)n1 (centres unmarked)
110
COc1ccc(C(CC(=O)O)c2ncc(CCCCc3ccc4c(n3)NCCC4)s2)cn1 (single isomer, unassigned) [Example 18]
6.7
COc1ccc(C(CC(=O)O)c2nc(CCCC3CCc4cccnc4N3)cs2)cc1F (single isomer, unassigned) [Example 160]
195
COc1ccc(C(CC(=O)O)c2ncc(CCCc3ccc4c(n3)NCCC4)s2)cn1 (single isomer, unassigned) [Example 20]
18
CN(C)C(=O)c1ccc(C(CC(=O)O)c2nc(CCCCc3ccc4c(n3)NCCC4)cs2)cc1 (single isomer, unassigned) [Example 128]
4.3
CN(C)C(=O)c1cncc(C(CC(=O)O)n2nccc2CCCc2ccc3c(n2)NCCC3)c1 (racemic)
24
COc1ccc(C(CC(=O)O)c2nc(CCCCc3ccc4c(n3)NCCC4)cs2)cc1OC (single isomer, unassigned) [Example 123]
180
COc1ccc(C(CC(=O)O)n2ccc(CCCc3ccc4c(n3)NCCC4)n2)cn1 (single isomer, unassigned) [Example 4]
210

(a) COc1ccc(C(CC(=O)O)c2nc(CCCCc3ccc4c(n3)NCCC4)cs2)cn1 (single isomer, unassigned) [Example 14]
(b) COc1ccc(C(CC(=O)O)c2ncc(CCCc3ccc4c(n3)NCCC4)s2)cc1F (single isomer, unassigned) [Example 43]
(c) O=C(O)C[C@@H](c1ccc(=O)n(Cc2ccccc2)c1)n1ccc(CCCc2ccc3c(n2)NCCC3)n1
Ask: Hey, can you sort those molecules up there by IC50, smallest first? To answer, arrange all of the labels according to the requested order.
Result: a, c, b
(a: 2.1 nM, c: 4.2 nM, b: 18 nM)
